experiment: Inhibition of Plasmodium falciparum plasmepsin 4 using DABCYL-Glu-Arg-Nle-Phe-Leu- Ser-Phe-Pro-EDANS fluorogenic substrate by fluorogenic assay
pIC50: −log10 of the molar value.
test.readout: pIC50

// solved cases for pIC50 follow
[
  {
    "compound.structure": "COC(=O)CCC(=O)N(CCN(Cc1ccccc1)C(=O)CCC(=O)OC)Cc1ccccc1",
    "pIC50": 5.05
  },
  {
    "compound.structure": "COc1ccc(Cl)cc1NC(=O)c1sc2nc(-c3ccccc3)cc(-c3ccc(OCc4ccccc4)c(OC)c3)c2c1N",
    "pIC50": 5.21
  }
]

a. CCOC(=O)c1ccc(/N=C2\S/C(=C\c3ccc(C(C)(C)C)cc3)C(=O)N2c2ccc(C(=O)OCC)cc2)cc1
b. Cc1ccc(NC(=S)N(Cc2ccc3c(c2)OCO3)Cc2cc3cccc(C)c3[nH]c2=O)cc1
Could you please tell me which of these two has the higher pIC50: a or b ? The response must carry the label of the picked entry.
a
(a: 5.43, b: 5.20)

====

experiment: Inhibition of Plasmodium falciparum plasmepsin 4 using DABCYL-Glu-Arg-Nle-Phe-Leu- Ser-Phe-Pro-EDANS fluorogenic substrate by fluorogenic assay
pIC50: −log10 of the molar value.
test.readout: pIC50

I. CCN(CC)C(=O)c1sc(NC(=O)c2cc(-c3cccc(C)c3)nc3ccccc23)c(C(=O)OC)c1C
II. CC(C)CCNC(=O)[C@H](c1c[nH]c2ccccc12)N(C(=O)c1snc(C(N)=O)c1N)c1ccc2c(c1)OCO2
Could you please tell me which of these two has the higher pIC50: I or II ? The response must carry the label of the picked entry.
I

I. CCN(CC)c1ccc(/C=N/NC(=O)CSc2nc3ccccc3n2Cc2ccc(Cl)cc2)cc1
II. CCCCOc1cccc(-c2cc(C(=O)N/N=C(\C)c3cccc(NC(=O)C(C)(C)C)c3)c3ccccc3n2)c1
Select the item whose pIC50 value is smaller, choosing between I and II . The response must carry the label of the picked entry.
II

====

tested on: Plasmodium falciparum; experiment: Antimalarial activity against Plasmodium falciparum 3D7 infected in RBC assessed as parasite-specific lactate dehydrogenase release; format: functional, organism-based
pIC50: −log10 of the molar value.
test.readout: pIC50

// solved cases for pIC50 follow
[
  {
    "compound.structure": "O=C(NCCNC(=O)/C(=C\\c1ccco1)NC(=O)c1ccccc1)/C(=C/c1ccco1)NC(=O)c1ccccc1",
    "study.target": "Plasmodium falciparum",
    "meas.value": 4.92
  },
  {
    "compound.structure": "CCOc1cccc(-c2cc(C(=O)N/N=C/c3ccc(OC)c(CN4CCSCC4)c3)c3ccccc3n2)c1",
    "study.target": "Plasmodium falciparum",
    "meas.value": 4.40
  },
  {
    "compound.structure": "CCCCc1ccc(-c2cc(C(=O)Nc3scc(-c4cccnc4)c3C(=O)OC)c3cc(Br)ccc3n2)cc1",
    "study.target": "Plasmodium falciparum",
    "meas.value": 5.91
  },
  {
    "compound.structure": "CCN(CC)C(=O)c1sc(NC(=O)c2cc(-c3cccc(C)c3)nc3ccccc23)c(C(=O)OC)c1C",
    "study.target": "Plasmodium falciparum",
    "meas.value": 5.35
  },
  {
    "compound.structure": "CCCCOc1cccc(-c2cc(C(=O)N/N=C(\\C)c3cccc(NC(=O)C(C)(C)C)c3)c3ccccc3n2)c1",
    "study.target": "Plasmodium falciparum",
    "meas.value": 5.43
  },
  {
    "compound.structure": "COC(=O)CCC(=O)N(CCN(Cc1ccccc1)C(=O)CCC(=O)OC)Cc1ccccc1",
    "study.target": "Plasmodium falciparum",
    "meas.value": 5.28
  },
  {
    "compound.structure": "CCN(CC)c1ccc(/C=N/NC(=O)CSc2nc3ccccc3n2Cc2ccc(Cl)cc2)cc1",
    "study.target": "Plasmodium falciparum",
    "meas.value": 5.66
  },
  {
    "compound.structure": "COc1ccc(Cl)cc1NC(=O)c1sc2nc(-c3ccccc3)cc(-c3ccc(OCc4ccccc4)c(OC)c3)c2c1N",
    "study.target": "Plasmodium falciparum",
    "meas.value": 5.64
  },
  {
    "compound.structure": "Cc1ccc(NC(=S)N(Cc2ccc3c(c2)OCO3)Cc2cc3cccc(C)c3[nH]c2=O)cc1",
    "study.target": "Plasmodium falciparum",
    "meas.value": 5.02
  },
  {
    "compound.structure": "CCCCOc1ccc(-c2cc(C(=O)N/N=C(\\C=C\\c3ccc4c(c3)OCO4)c3ccc(OC)cc3)c3ccccc3n2)cc1",
    "study.target": "Plasmodium falciparum",
    "meas.value": 4.62
  }
]

a. COc1ccc([C@@H](C(=O)NC2CCCC2)N(C(=O)c2snc(C(N)=O)c2N)c2ccc(OC)cc2)cc1
b. CCOc1ccc(N(C(=O)c2snc(C(=O)NC3CCCCC3)c2N)[C@H](C(=O)NCCc2ccccc2)c2ccc(OC)cc2)cc1
Could you please tell me which of these two has the higher pIC50: a or b ? The response must carry the label of the picked entry.
b

P. CC(C)CCNC(=O)[C@H](c1c[nH]c2ccccc12)N(C(=O)c1snc(C(N)=O)c1N)c1ccc2c(c1)OCO2
Q. CCOC(=O)c1ccc(/N=C2\S/C(=C\c3ccc(C(C)(C)C)cc3)C(=O)N2c2ccc(C(=O)OCC)cc2)cc1
Could you please tell me which of these two has the higher pIC50: P or Q ? The response must carry the label of the picked entry.
P
(P: 5.66, Q: 5.30)

====

molecular target: Plasmepsin II (Plasmodium falciparum)
test.readout: Ki (µM)

// solved cases for Ki follow
[
  {
    "compound.structure": "COc1ccc(Cl)cc1NC(=O)c1sc2nc(-c3ccccc3)cc(-c3ccc(OCc4ccccc4)c(OC)c3)c2c1N",
    "meas.value": 1.6
  },
  {
    "compound.structure": "COC(=O)CCC(=O)N(CCN(Cc1ccccc1)C(=O)CCC(=O)OC)Cc1ccccc1",
    "meas.value": 7
  }
]

P. CCCCOc1cccc(-c2cc(C(=O)N/N=C(\C)c3cccc(NC(=O)C(C)(C)C)c3)c3ccccc3n2)c1
Q. CCN(CC)c1ccc(/C=N/NC(=O)CSc2nc3ccccc3n2Cc2ccc(Cl)cc2)cc1
Select the item whose Ki value is smaller, choosing between P and Q . The response must carry the label of the picked entry.
Q

====

molecular target: Plasmepsin II (Plasmodium falciparum, UniProt P46925)
Sequence (P46925 whole entry): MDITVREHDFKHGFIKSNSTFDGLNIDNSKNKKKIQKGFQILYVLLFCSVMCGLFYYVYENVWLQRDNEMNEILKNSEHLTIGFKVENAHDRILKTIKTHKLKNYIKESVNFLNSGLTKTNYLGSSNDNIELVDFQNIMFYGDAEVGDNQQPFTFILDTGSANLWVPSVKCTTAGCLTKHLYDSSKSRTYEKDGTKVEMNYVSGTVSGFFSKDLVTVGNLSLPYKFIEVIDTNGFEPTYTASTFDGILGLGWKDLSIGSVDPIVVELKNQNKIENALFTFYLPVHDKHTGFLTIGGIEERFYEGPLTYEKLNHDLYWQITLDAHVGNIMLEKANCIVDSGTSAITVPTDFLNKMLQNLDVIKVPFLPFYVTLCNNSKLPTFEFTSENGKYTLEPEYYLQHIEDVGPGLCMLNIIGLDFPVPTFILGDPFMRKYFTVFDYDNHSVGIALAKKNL
test.readout: IC50 (µM)

// solved cases for IC50 follow
[
  {
    "compound.structure": "CCOC(=O)c1ccc(/N=C2\\S/C(=C\\c3ccc(C(C)(C)C)cc3)C(=O)N2c2ccc(C(=O)OCC)cc2)cc1",
    "test.readout": "IC50",
    "units.of.measure": "µM",
    "meas.value": 6.1
  },
  {
    "compound.structure": "CCN(CC)c1ccc(/C=N/NC(=O)CSc2nc3ccccc3n2Cc2ccc(Cl)cc2)cc1",
    "test.readout": "IC50",
    "units.of.measure": "µM",
    "meas.value": 2.4
  },
  {
    "compound.structure": "Cc1ccc(NC(=S)N(Cc2ccc3c(c2)OCO3)Cc2cc3cccc(C)c3[nH]c2=O)cc1",
    "test.readout": "IC50",
    "units.of.measure": "µM",
    "meas.value": 7
  }
]

P. COc1ccc(Cl)cc1NC(=O)c1sc2nc(-c3ccccc3)cc(-c3ccc(OCc4ccccc4)c(OC)c3)c2c1N
Q. COC(=O)CCC(=O)N(CCN(Cc1ccccc1)C(=O)CCC(=O)OC)Cc1ccccc1
Could you please tell me which of these two has the higher IC50: P or Q ? The response must carry the label of the picked entry.
Q
(Q: 10 µM, P: 2.3 µM)

====

molecular target: Cathepsin D (Homo sapiens); assay: Inhibition of human liver Cathepsin D using KPIEF(nF)RL chromogenic substrate at 5 uM by absorbance assay
test.readout: inhibition (%)

// solved cases for inhibition follow
[
  {
    "compound.structure": "CCN(CC)C(=O)c1sc(NC(=O)c2cc(-c3cccc(C)c3)nc3ccccc23)c(C(=O)OC)c1C",
    "meas.value": 20
  },
  {
    "compound.structure": "COc1ccc(Cl)cc1NC(=O)c1sc2nc(-c3ccccc3)cc(-c3ccc(OCc4ccccc4)c(OC)c3)c2c1N",
    "meas.value": 12
  },
  {
    "compound.structure": "COC(=O)CCC(=O)N(CCN(Cc1ccccc1)C(=O)CCC(=O)OC)Cc1ccccc1",
    "meas.value": 35
  },
  {
    "compound.structure": "CCOC(=O)c1ccc(/N=C2\\S/C(=C\\c3ccc(C(C)(C)C)cc3)C(=O)N2c2ccc(C(=O)OCC)cc2)cc1",
    "meas.value": 15
  },
  {
    "compound.structure": "CCN(CC)c1ccc(/C=N/NC(=O)CSc2nc3ccccc3n2Cc2ccc(Cl)cc2)cc1",
    "meas.value": 10
  },
  {
    "compound.structure": "CC(C)CCNC(=O)[C@H](c1c[nH]c2ccccc12)N(C(=O)c1snc(C(N)=O)c1N)c1ccc2c(c1)OCO2",
    "meas.value": 12
  }
]

P. CCOc1ccc(N(C(=O)c2snc(C(=O)NC3CCCCC3)c2N)[C@H](C(=O)NCCc2ccccc2)c2ccc(OC)cc2)cc1
Q. CCCCOc1cccc(-c2cc(C(=O)N/N=C(\C)c3cccc(NC(=O)C(C)(C)C)c3)c3ccccc3n2)c1
R. Cc1ccc(NC(=S)N(Cc2ccc3c(c2)OCO3)Cc2cc3cccc(C)c3[nH]c2=O)cc1
Arrange items by their inhibition values in increasing order. Please, when replying, give the labels in the order that was requested.
Q, P, R
